Where do these numbers come from? They come from patent US8552048B2.

Assay: Pharmacokinetics in Sprague-Dawley rats (single dose i.v. and p.o.)
Format: in vivo, male Sprague-Dawley rats
Conditions: male, Sprague-Dawley, rat, plasma, iv; rats, 1 mg/kg i.v. bolus, individual animals
recordedMetric: Tmax (min)
Reply numerically in min, unit not repeated.

Task: Form field: reported Tmax of Cn1c(COP(=O)(NCCBr)NCCBr)cnc1[N+](=O)[O-] [TH302]
Output: 1.8

###

Experiment: Pharmacokinetics in Sprague-Dawley rats (single dose i.v. and p.o.)
Assay type: in vivo, male Sprague-Dawley rats
Conditions: male, Sprague-Dawley, rat, plasma, iv, rats, i.v. dose 1-50 mg/kg, range of means; read-out: Mean Cl
recordedMetric: clearance

Task: Form field: reported clearance of `Cn1c(COP(=O)(NCCBr)NCCBr)cnc1[N+](=O)[O-]`
Output: 78.2 to 102 mL/min/kg
